meta.source: patent US20200362047A1

This listing pairs binders with measured koff.
- System Tested: T1, human CD137-human Fc chimeric protein (Acro Biosystems cat no. 41B-H5258) (human, UniProt Q07011 24-186)
- T1 construct: Bought protein; The Octet Protein G and Biacore experiments name no catalogue number; also called human CD137Fc recombinant protein; human CD137-Fc recombinant protein; not shown: human IgG1 Fc tag
- Procedure Summary: BLI (Octet RED384), CD137-Fc amine-coupled to AR2G sensors, 1:1 model
// units = s⁻¹; emit number, no label

# lookup: koff of Humabody VH 2.1 (VHH, human single VH domain) VH: EVQLVESGGGLVKPGGSLRVSCAASGFTFSDYYMSWFRQAPGKGLEWVSYISGSGDIIDYADSVKGRFTISRDNAKNSLYLQMNNLRAEDTAVYHCAREDSRLTGTTDFDNWGQGTLVTVSSHHHHHH
0.0052

Same question for 4.1(PSMA-binding VH)-6GS-1.1 (bispecific antibody, tandem VH, PSMA x CD137; also called 4.1-6GS-1.1; not shown: His tag) EVQLVESGGGVVQPGRSLRLSCAASGFSFSGYGMHWVRQAPGKGLEWVAYISYDGSNKYYADSVKGRFTISRDNSKNTLYLQMNSLRAEDTAVYYCAKDPAWGLRLGESSSYDFDIWGQGTMVTVSSGGGGSGGGGSGGGGSGGGGSGGGGSGGGGSEVQLVESGGGLVQPGGSLRLSCAASGFTFSSHWMTWFRQAPGKGLEWVAHIKEDGSEKYYEDSVEGRFTVSRDNAKNSVYLQMNSLRAEDTAVYYCARGGDGYSDSHFGVDVWGQGTTVTVSS please.
0.00031

Now give it for Humabody VH 1.1 (VHH, human single VH domain; also called single domain antibody 1.1) VH: EVQLVESGGGLVQPGGSLRLSCAASGFTFSSHWMTWFRQAPGKGLEWVAHIKEDGSEKYYEDSVEGRFTVSRDNAKNSVYLQMNSLRAEDTAVYYCARGGDGYSDSHFGVDVWGQGTTVTVSSHHHHHH too.
0.00036

Subsequent entry: 4.1(PSMA-binding VH)-6GS-2.1 (bispecific antibody, tandem VH, PSMA x CD137; also called 4.1-6GS-2.1; not shown: His tag) EVQLVESGGGVVQPGRSLRLSCAASGFSFSGYGMHWVRQAPGKGLEWVAYISYDGSNKYYADSVKGRFTISRDNSKNTLYLQMNSLRAEDTAVYYCAKDPAWGLRLGESSSYDFDIWGQGTMVTVSSGGGGSGGGGSGGGGSGGGGSGGGGSGGGGSEVQLVESGGGLVKPGGSLRVSCAASGFTFSDYYMSWFRQAPGKGLEWVSYISGSGDIIDYADSVKGRFTISRDNAKNSLYLQMNNLRAEDTAVYHCAREDSRLTGTTDFDNWGQGTLVTVSS
0.0026
